ASSAY_SYSTEM: T1, human interleukin-23 receptor (IL23R) (human, UniProt Q5VWK5 24-355, limits assumed)
T1 construct: also called human IL23R
T1 sequence (looked up): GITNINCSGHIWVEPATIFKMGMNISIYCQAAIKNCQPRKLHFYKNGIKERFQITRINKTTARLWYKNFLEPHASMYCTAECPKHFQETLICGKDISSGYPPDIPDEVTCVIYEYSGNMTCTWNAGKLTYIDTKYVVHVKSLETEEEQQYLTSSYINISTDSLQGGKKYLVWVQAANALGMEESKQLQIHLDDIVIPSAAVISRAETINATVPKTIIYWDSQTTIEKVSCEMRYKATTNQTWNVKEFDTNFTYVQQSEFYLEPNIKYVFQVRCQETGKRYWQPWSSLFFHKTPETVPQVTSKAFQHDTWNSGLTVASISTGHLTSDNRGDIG
RUN_DESCRIPTION: SPR, scFv
TEST_READOUT: koff (s⁻¹)

INSERT INTO assay_data (binder, u, meas_value) VALUES
  ('Vκ1/VH6 consensus λ-capped, human IL23R specific scFv (scFv, scFv VL-linker-VH, made in E. coli; also called Vκ1VH6 capped) scFv: DIQMTQSPSSLSASVGDRVTITCQASENIYSFLAWYQQKPGKAPKLLIYSASKLAAGVPSRFSGSGSGTDFTLTISSLQPEDFATYYCQQTNRYSNPDIYNVFGGGTKLTVLGGGGGSGGGGSGGGGSGGGGSQVQLQQSGPGLVKPSQTLSLTCAISGIDFNSNYYMCWIRQSPGRGLEWLGCIYVGSHVNTYYANWAKGRITINPDTSKNQFSLQLNSVTPEDTAVYYCATSGSSVLYFKFWGQGTLVTVSS', 's⁻¹', 0.000349),
  ('Vκ2/VH4 consensus λ-capped, human IL23R specific scFv (scFv, scFv VL-linker-VH, made in E. coli; also called Vκ2VH4 capped) scFv: DIVMTQSPLSLPVTPGEPASISCQASENIYSFLAWYLQKPGQSPQLLIYSASKLAAGVPDRFSGSGSGTDFTLKISRVEAEDVGVYYCQQTNRYSNPDIYNVFGGGTKLTVLGGGGGSGGGGSGGGGSGGGGSQVQLQESGPGLVKPSETLSLTCTVSGIDFNSNYYMCWIRQPPGKGLEWIGCIYVGSHVNTYYANWAKGRVTISVDTSKNQFSLKLSSVTAADTAVYYCATSGSSVLYFKFWGQGTLVTVSS', 's⁻¹', 0.000112),
  ('Vκ3/VH4 consensus (uncapped), human IL23R specific scFv (scFv, scFv VL-linker-VH, made in E. coli; Vκ framework IV (uncapped, full consensus); also called Vκ3VH4 uncapped) scFv: DIVLTQSPATLSLSPGERATLSCQASENIYSFLAWYQQKPGQAPRLLIYSASKLAAGVPARFSGSGSGTDFTLTISSLEPEDFAVYYCQQTNRYSNPDIYNVFGQGTKVEIKRGGGGSGGGGSGGGGSGGGGSQVQLQESGPGLVKPSETLSLTCTVSGIDFNSNYYMCWIRQPPGKGLEWIGCIYVGSHVNTYYANWAKGRVTISVDTSKNQFSLKLSSVTAADTAVYYCATSGSSVLYFKFWGQGTLVTVSS', 's⁻¹', 0.000263);
